# Measured target: cynomolgus monkey DLL4 extracellular domain (cynomolgus monkey)
# Measurement description: binding ELISA
In this section, each of the binders is paired with its reported pEC50.
Scale: pEC50 equals -log10([C]), with [C] in mol/L.

Before answering, review these 9 worked examples.
h1A11.2 (antibody, V domains shown) VH: EVQLVESGGGLVQPGGSLRLSCAASGFTFSNFPMAWVRQAPGKGLEWVATISSSDGTTYYRDSVKGRFTISRDNAKNSLYLQMNSLRAEDTAVYYCARGYYNSPFAYWGQGTLVTVSS VL: DIQMTQSPSSLSASVGDRVTITCRASEDIYSNLAWYQQKPGKSPKLLIFDTNNLADGVPSRFSGSGSGTDSTLTISSLQPEDFATYFCQQYNNYPPTFGQGTKLEIKR ... 9.89
h1A11.6 (antibody, V domains shown) VH: EVQLVESGGGLVQPGGSLRLSCAASGFTFSNFPMAWVRQAPGKGLEWVATISSSDGTTYYRDSVKGRFTISRDNAKSSLYLQMNSLRAEDTAVYYCSRGYYNSPFAYWGQGTLVTVSS VL: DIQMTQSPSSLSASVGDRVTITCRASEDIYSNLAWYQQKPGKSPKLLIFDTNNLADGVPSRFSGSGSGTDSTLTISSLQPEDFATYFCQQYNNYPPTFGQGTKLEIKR ... 9.89
h1A11.13 (antibody, V domains shown) VH: EVQLVESGGGLVQPGGSLRLSCAASGFTFSNFPMAWVRQAPGKGLEWVATISSSDGTTYYRDSVKGRFTISRDNSKSTLYLQMNSLRAEDTAVYYCSRGYYNSPFAYWGQGTLVTVSS VL: DIQMTQSPSSLSASVGDRVTITCRASEDIYSNLAWYQQKPGKAPKLLIYDTNNLADGVPSRFSGSGSGTDFTLTISSLQPEDFATYYCQQYNNYPPTFGQGTKLEIKR ... 9.80
h1A11.15 (antibody, V domains shown) VH: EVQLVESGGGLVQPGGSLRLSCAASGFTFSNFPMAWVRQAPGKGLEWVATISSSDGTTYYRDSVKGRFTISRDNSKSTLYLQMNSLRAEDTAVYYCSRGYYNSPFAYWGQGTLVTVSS VL: DIQMTQSPSSLSASVGDRVTITCRASEDIYSNLAWYQQKPGKAPKLLIFDTNNLADGVPSRFSGSGSGTDFTLTISSLQPEDFATYYCQQYNNYPPTFGQGTKLEIKR ... 9.89
h1A11.7 (antibody, V domains shown) VH: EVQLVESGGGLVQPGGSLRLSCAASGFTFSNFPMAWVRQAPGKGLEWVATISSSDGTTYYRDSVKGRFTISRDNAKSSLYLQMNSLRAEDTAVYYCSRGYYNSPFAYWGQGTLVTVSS VL: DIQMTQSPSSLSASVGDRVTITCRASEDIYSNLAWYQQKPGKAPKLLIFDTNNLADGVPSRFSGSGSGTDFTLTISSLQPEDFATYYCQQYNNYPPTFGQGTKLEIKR ... 9.85
h1A11.3 (antibody, V domains shown) VH: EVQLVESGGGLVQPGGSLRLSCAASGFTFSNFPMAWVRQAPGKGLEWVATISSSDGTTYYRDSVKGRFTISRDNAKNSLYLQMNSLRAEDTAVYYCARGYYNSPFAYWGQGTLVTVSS VL: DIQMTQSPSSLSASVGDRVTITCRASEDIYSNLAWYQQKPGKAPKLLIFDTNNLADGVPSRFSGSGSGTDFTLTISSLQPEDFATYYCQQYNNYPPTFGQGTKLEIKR ... 9.80
h1A11.11 (antibody, V domains shown) VH: EVQLVESGGGLVQPGGSLRLSCAASGFTFSNFPMAWVRQAPGKGLEWVATISSSDGTTYYRDSVKGRFTISRDNAKNSLYLQMNSLRAEDTAVYYCSRGYYNSPFAYWGQGTLVTVSS VL: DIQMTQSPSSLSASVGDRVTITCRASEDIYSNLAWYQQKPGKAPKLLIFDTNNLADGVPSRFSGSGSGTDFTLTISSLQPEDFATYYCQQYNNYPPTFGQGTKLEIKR ... 9.82
h1A11.8 (antibody, V domains shown) VH: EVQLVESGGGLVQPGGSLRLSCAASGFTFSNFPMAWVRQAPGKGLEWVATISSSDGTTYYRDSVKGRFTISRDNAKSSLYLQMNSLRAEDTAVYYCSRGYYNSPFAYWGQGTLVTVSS VL: EIVMTQSPATLSVSPGERATLSCRASEDIYSNLAWYQQKPGQSPRLLIFDTNNLADGVPARFSGSGSGTESTLTISSLQSEDFAVYFCQQYNNYPPTFGQGTKLEIKR ... 9.77
h1A11.10 (antibody, V domains shown) VH: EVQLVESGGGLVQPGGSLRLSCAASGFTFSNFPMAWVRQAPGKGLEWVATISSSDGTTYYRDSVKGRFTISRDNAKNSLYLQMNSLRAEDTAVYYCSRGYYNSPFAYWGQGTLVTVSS VL: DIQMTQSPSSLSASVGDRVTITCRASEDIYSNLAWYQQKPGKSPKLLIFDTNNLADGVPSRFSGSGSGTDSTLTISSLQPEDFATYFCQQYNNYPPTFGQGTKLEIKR ... 9.82

Now consider a different binder.
Recorded result, h1A11.14 (antibody, V domains shown) VH: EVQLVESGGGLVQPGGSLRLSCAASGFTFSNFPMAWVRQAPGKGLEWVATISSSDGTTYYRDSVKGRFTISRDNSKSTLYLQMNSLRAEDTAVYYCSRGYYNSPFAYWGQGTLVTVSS VL: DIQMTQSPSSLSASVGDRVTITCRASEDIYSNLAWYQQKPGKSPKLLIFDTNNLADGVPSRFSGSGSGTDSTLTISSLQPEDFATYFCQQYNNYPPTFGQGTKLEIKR , pEC50: 9.85
